The measurements presented in this section are drawn from PubChem BioAssay AID588622.

Listing of entries alongside the reported pEC50.
biological target: RhoWT; assay: inhibitors of GTP binding, eight-GTPase multiplex, SAR follow-up, biochemical, bead flow cytometry, Mg non-chelator buffer, round 2 (AID 588622); details: bead-based flow cytometry multiplex GTP binding
Just so you know, pEC50 here is -log10 of the concentration in molar units; reply with that number alone.

Record excerpt, results attached:
Cc1cccc(C(=O)NC(=S)Nc2sc3c(c2C(=O)O)CC(C)(C)OC3)c1 : 5.84
O=C(NC(=S)Nc1sc2c(c1C(=O)O)CC1(CCCC1)OC2)c1ccccc1 : 7.00
CC1(C)Cc2c(sc(NC(=S)NC(=O)c3ccc(F)cc3)c2C(=O)O)CO1 : 6.95
Cc1ccccc1C(=O)NC(=S)Nc1sc2c(c1C(=O)O)CC(C)(C)OC2 : 6.31
CC1(C)Cc2c(sc(NC(=S)NC(=O)c3ccccc3Br)c2C(=O)O)CO1 : 5.88

Input line: Please look up its pEC50: CC1(C)Cc2c(sc(NC(=S)NC(=O)c3ccco3)c2C(=O)O)CO1
Output line: 7.04

Input line: Please look up its pEC50: CC1(C)Cc2c(sc(NC(=S)NC(=O)C3CCCCC3)c2C(=O)O)CO1
Output line: 6.09

* * *

biological target: RacACT; test: inhibitors of GTP binding, eight-GTPase multiplex, SAR follow-up, biochemical, bead flow cytometry, Mg non-chelator buffer, round 2 (AID 588622); details: bead-based flow cytometry multiplex GTP binding
propertyLabel: EC50

CC1(C)Cc2c(sc(NC(=S)NC(=O)C3CCCCC3)c2C(=O)O)CO1 : 397 nM
CC1(C)Cc2c(sc(NC(=S)NC(=O)c3ccco3)c2C(=O)O)CO1 : 59 nM
O=C(NC(=S)Nc1sc2c(c1C(=O)O)CC1(CCCC1)OC2)c1ccccc1 : 80 nM
CC1(C)CCc2sc(NC(=S)NC(=O)c3ccccc3)c(C(=O)O)c2C1 : 48 nM

Input line: Please look up its EC50: Cc1ccc(C(=O)NC(=S)Nc2sc3c(c2C(=O)O)CC(C)(C)OC3)cc1
Output line: 139 nM

Input line: Please look up its EC50: COc1ccc(C(=O)NC(=S)Nc2sc3c(c2C(=O)O)CC(C)(C)OC3)cc1
Output line: 243 nM

* * *

target: Cdc42WT; experiment: inhibitors of GTP binding, eight-GTPase multiplex, SAR follow-up, biochemical, bead flow cytometry, Mg non-chelator buffer, round 2 (AID 588622); conditions: bead-based flow cytometry multiplex GTP binding
propertyLabel: EC50

Record excerpt, results attached:
Cc1ccc(C(=O)NC(=S)Nc2sc3c(c2C(=O)O)CC(C)(C)OC3)cc1 : 0.109 µM
CC1(C)Cc2c(sc(NC(=S)NC(=O)c3ccccc3F)c2C(=O)O)CO1 : 0.443 µM

// switching to the query compound
Input line: Please look up its EC50: CC1(C)Cc2c(sc(NC(=S)NC(=O)c3ccccc3Br)c2C(=O)O)CO1
Output line: 1.55 µM

* * *

molecular target: RacACT; test: inhibitors of GTP binding, eight-GTPase multiplex, SAR follow-up, biochemical, bead flow cytometry, Mg non-chelator buffer, round 2 (AID 588622); conditions: bead-based flow cytometry multiplex GTP binding
propertyLabel: pEC50
Just so you know, pEC50 here is -log10 of the concentration in molar units; reply with that number alone.

CC1(C)Cc2c(sc(NC(=S)NC(=O)c3ccc(Br)cc3)c2C(=O)O)CO1 : 6.34

Input line: Please look up its pEC50: CC1(C)Cc2c(sc(NC(=S)NC(=O)c3ccccc3F)c2C(=O)O)CO1
Output line: 6.34

Input line: Please look up its pEC50: CC1(C)Cc2c(sc(NC(=S)NC(=O)c3ccccc3Br)c2C(=O)O)CO1
Output line: 5.93

Input line: Please look up its pEC50: CC(C)(C)C1Cc2c(sc(NC(=S)NC(=O)c3ccccc3)c2C(=O)O)CO1 (stereo not drawn)
Output line: 6.84

Input line: Please look up its pEC50: CC1(C)Cc2c(sc(NC(=S)NC(=O)c3cccs3)c2C(=O)O)CO1
Output line: 7.57

Input line: Please look up its pEC50: Cc1ccccc1C(=O)NC(=S)Nc1sc2c(c1C(=O)O)CC(C)(C)OC2
Output line: 6.43

Input line: Please look up its pEC50: CC1(C)Cc2c(sc(NC(=S)NC(=O)c3ccc(F)cc3)c2C(=O)O)CO1
Output line: 6.88

Input line: Please look up its pEC50: CCC1(C)Cc2c(sc(NC(=S)NC(=O)c3ccccc3)c2C(=O)O)CO1 (stereo not drawn)
Output line: 7.34
